ASSAY_METHOD_TEXT: Solubility assay
CONDITION: phosphate buffer, pH 7.4, aqueous buffer, kinetic from dmso stock
QUANTITY: solubility at 2 h (µM)

>  <STRUCTURE_SMILES_STRING>
COc1cnc(Cl)c(F)c1-c1cc(C)ncc1C(=O)Nc1nc2cnc(-c3c(C)nnn3C)c(F)c2s1

>  <QUANTITY>
solubility at 2 h

>  <MEASURED_VALUE>
82.6

$$$$

I: COc1cnc(Cl)c(F)c1-c1cc(C)ncc1C(=O)Nc1nc2cnc(-c3c(C)nnn3C)cc2s1
II: COc1cnc(C(F)F)cc1-c1cc(C)ncc1C(=O)Nc1nc2cnc(-c3c(C)nnn3C)cc2s1
Task for the reader: decide whether I or II has the larger solubility at 2 h. Identify your pick by its label. II
